assay: NCI Yeast Anticancer Drug Screen. Data for the rad18 strain (AID 177); conditions: S. cerevisiae rad18 mutant growth inhibition; at 1.2 µM
This is part of a sample that, as a whole, favours compounds with a hit. Of some 79,000 tested, about 15% had one in any assay. Calls of active or inactive are those of the source. Cut-off read from the data, not from the text of the source: active = growth inhibition above about 70%; inactive = the rest.
The reply should name one outcome from active, inactive

Example entries begin here.
S=c1cn[nH]c2ccc(Br)cc12: inactive
N#C/C(=C1C=C/C(=N/O)c2ccccc2/1)c1ccccc1: inactive
O=C(NC(=S)Nc1ccccn1)c1ccccc1: inactive

Ask: Check the results log: what was the call for CC1=CC2C(C(C)C)CC1C1C(=O)OC(=O)C21 (configuration not stated) ?
Reply: inactive

Ask: Hi, sorry to bother you, what did the test record for `CC(C)c1cccc(O)c(=O)c1` ?
Reply: inactive

Ask: What did the test return for `CN(NC(=O)/C(=C/c1ccc(O)cc1)NC(=O)c1ccccc1)c1ccnc2cc(Cl)ccc12` ?
Reply: inactive

Ask: Tell me the recorded outcome of this test for `O=C1CSC(=S)N1Cc1ccc(Cl)cc1Cl` .
Reply: inactive

Ask: Recorded test outcome, item `Nc1cc(F)cc2c1-c1ccc(F)cc1C2`
Reply: inactive

Ask: Field: outcome | Entry: `O=C1CC(=O)N(C2CCCCC2)C(=O)N1c1ccccc1S(=O)(=O)Oc1ccccc1`
Reply: inactive

Ask: Short answer needed: outcome of this test for `Cc1ccc(S(=O)(=O)N/N=C/C2(c3ccccc3)c3ccccc3-c3ccccc32)cc1` ?
Reply: inactive

Ask: # lookup: test call for `COC(=O)c1cccc(C)c1C(=O)c1c(C)cc(C)cc1C`
Reply: inactive
